Readings of EC50 (cAMP reporter) for the listed binders
Target: T1, GIP receptor (UniProt P48546 22-466, limits assumed)
T1 sequence (looked up): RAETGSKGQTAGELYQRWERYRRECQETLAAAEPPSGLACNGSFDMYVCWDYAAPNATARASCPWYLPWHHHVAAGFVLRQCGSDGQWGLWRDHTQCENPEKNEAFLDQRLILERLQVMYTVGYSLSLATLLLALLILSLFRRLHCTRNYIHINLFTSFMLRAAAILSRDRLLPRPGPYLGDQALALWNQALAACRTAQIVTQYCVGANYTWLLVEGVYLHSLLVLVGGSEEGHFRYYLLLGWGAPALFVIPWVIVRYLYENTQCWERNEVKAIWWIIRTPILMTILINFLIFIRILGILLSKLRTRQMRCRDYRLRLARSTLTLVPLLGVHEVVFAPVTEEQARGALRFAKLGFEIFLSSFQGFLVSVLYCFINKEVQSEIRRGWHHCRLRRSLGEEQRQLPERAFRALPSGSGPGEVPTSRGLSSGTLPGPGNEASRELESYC
Assay: cell-based or functional assay
*1 amine or outer side, *2 acyl side, *3 side chain or, on linkers, in order; H or OH if unused. Where no end group is shown, it is not given here. Side-chain parts run from the residue outwards. [ ]: non-standard residue; d: D form. The star is where a group is joined. Palmitoyl = CCCCCCCCCCCCCCCC(=O)*; Suc = O=C(CCC(=O)[*:2])[*:1]; Aib = CC(C)(N)C(=O)O; βAla = NCCC(=O)O
Respond numerically; units are pM and should not be typed.

Y[Aib]EGTFTSDYSIYLDKQAA[Aib]EFVNWLLAGGPSSGAPPPSK([Suc-Palmitoyl])G-NH2 [peptide of SEQ ID NO: 140] ... 1
Y[Aib]EGTFTSDYSIYLDKQAA[Aib]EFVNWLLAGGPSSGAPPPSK(Palmitoyl)G-NH2 [peptide of SEQ ID NO: 139] ... 1

API: the following record is the query input.
**Query** Please list EC50 (cAMP reporter) recorded for the binder Y[Aib]EGTFTSDYSIYLDKQAA[Aib]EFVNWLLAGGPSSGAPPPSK([βAla-Suc-Palmitoyl])G-NH2 [peptide of SEQ ID NO: 141]
**Result** 2
